The reported numbers originate from paper PMC10094921.

Experiment: In vitro serum stability assay
Type: in vitro ADME, human
Details: human serum 400 µL + 200 µg peptide in 100 µL water, 37 °C; samples 0-480 min; acetonitrile precipitation; RP-HPLC peak area vs time zero; one-phase decay fit; n = 3, duplicate
No end group written: not given here.
OUTCOME MEASURE: half-life at 400 µg/mL

• VIKLSGRELVRAQIAISGMSTWSKRSL-NH2 [Analogue B7-33] = ~6 min
